Hello, the source for this data is patent US20250100996A1, in case you need it.

# target-or-system: human E3 ligase component cereblon (CRBN) (Homo sapiens)
# Construct: host or cells: HEK293T
# Sequence (Q96SW2 whole entry): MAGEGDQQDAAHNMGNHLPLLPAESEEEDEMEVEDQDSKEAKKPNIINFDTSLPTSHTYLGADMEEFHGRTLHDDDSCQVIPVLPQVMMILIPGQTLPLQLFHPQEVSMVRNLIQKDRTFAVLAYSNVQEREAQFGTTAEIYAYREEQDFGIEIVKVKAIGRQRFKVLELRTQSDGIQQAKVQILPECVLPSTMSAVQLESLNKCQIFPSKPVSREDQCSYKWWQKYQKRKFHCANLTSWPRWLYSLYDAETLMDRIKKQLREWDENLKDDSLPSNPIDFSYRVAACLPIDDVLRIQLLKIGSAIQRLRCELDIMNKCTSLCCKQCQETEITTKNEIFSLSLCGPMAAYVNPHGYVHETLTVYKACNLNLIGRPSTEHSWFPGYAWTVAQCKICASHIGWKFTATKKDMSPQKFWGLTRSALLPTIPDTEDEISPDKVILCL
# Sequence (Q16531 whole entry partner): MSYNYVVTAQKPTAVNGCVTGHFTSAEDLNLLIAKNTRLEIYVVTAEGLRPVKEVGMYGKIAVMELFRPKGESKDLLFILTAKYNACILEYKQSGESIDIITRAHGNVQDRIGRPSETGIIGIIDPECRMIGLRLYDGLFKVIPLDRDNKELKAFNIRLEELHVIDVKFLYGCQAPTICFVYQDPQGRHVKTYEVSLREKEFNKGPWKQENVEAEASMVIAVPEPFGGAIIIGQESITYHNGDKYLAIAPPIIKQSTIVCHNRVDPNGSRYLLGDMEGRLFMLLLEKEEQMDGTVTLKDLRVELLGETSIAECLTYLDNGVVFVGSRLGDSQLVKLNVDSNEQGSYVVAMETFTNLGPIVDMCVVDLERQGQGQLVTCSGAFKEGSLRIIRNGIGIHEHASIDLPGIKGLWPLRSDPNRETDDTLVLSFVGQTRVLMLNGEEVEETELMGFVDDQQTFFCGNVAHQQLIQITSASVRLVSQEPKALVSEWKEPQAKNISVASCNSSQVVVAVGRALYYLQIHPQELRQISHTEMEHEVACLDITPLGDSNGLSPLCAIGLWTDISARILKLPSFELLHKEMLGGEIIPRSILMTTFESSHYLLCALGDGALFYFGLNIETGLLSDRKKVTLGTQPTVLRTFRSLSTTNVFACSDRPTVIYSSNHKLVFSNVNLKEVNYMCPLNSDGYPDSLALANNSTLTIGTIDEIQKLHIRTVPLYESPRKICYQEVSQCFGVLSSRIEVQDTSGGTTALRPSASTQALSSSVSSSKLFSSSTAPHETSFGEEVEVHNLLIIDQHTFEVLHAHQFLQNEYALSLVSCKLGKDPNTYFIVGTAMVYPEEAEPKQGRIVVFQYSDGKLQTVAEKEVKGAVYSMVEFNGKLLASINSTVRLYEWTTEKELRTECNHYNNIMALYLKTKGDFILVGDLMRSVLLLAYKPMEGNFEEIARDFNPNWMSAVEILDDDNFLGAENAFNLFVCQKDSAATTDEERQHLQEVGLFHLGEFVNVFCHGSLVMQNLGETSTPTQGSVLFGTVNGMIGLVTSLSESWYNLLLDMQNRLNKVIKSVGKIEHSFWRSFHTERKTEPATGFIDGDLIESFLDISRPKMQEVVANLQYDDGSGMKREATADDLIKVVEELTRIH
# test-protocol: Cereblon (CRBN) target engagement, NanoBRET TE Intracellular E3 Ligase Assay in transfected HEK-293T cells
# condition-info: read-out: CRBN Binding EC50
Below, each entry is listed with its recorded EC50.
assay-metric: EC50 (nM)

- N#Cc1cc(C2CN([C@@H]3CCCC[C@@H]3Oc3ccc4c(c3)CN(C3CCC(=O)NC3=O)C4=O)C2)ccn1 (mixture of isomers): 39
- O=C1CCC(N2Cc3cc(OC4CCCCC4N4CC(c5cncc(C(F)(F)F)c5)C4)ccc3C2=O)C(=O)N1 (stereo not drawn): 39
- O=C1CCC(N2Cc3cc(O[C@@H]4CCCC[C@H]4N4CC(c5ncc(C6CC6)cn5)C4)ccc3C2=O)C(=O)N1 (single isomer, unassigned) [Compound 133-B]: 10

###

Below, each entry is listed with its recorded DC50.
# target-or-system: IKZF2 (Helios) (Homo sapiens, UniProt Q9UKS7)
# Construct: Leu-Asp junction (codons ctcgac before the linker); mScarlet (behind P2A) (C, cleaved yes); expressed in transfected cells
# Sequence (Q9UKS7 whole entry): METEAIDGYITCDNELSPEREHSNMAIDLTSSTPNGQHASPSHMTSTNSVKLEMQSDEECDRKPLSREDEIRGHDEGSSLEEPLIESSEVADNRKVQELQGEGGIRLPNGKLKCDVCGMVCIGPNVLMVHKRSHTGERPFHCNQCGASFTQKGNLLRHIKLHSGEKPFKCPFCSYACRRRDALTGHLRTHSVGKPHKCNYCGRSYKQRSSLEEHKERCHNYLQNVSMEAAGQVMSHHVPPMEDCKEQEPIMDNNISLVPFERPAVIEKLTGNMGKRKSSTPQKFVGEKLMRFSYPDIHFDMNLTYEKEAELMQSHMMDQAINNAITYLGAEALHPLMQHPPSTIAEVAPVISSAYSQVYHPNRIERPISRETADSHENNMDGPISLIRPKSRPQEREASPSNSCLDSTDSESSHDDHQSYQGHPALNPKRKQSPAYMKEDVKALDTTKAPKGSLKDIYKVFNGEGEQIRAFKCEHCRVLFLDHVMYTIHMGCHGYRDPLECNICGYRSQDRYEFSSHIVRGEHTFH
# Sequence (Q96SW2 whole entry, further chain): as the sequence (Q96SW2 whole entry) above
# Sequence (Q16531 whole entry partner): as the sequence (Q16531 whole entry partner) above
# test-protocol: IKZF2 reporter degradation assay (HEK 293T IKZF2-mNeonGreen reporter cell line)
# Assay type: cell-based
# condition-info: HEK 293T IKZF2-mNeonGreen reporter, 24 hours incubation
assay-metric: DC50 (nM)

• O=C1CCC(N2Cc3cc(O[C@H]4CCCC[C@@H]4N4CC(c5ncncc5Cl)C4)ccc3C2=O)C(=O)N1 (single isomer, unassigned) [Compound 92-B] = 7
• O=C1CCC(N2Cc3cc(O[C@H]4CCCC[C@@H]4N4CC(C5CCOCC5F)C4)ccc3C2=O)C(=O)N1 (stereo partly drawn) = 5
• CC12CC(C(=O)N3CCC(C4CN([C@H]5CCCC[C@@H]5Oc5ccc6c(c5)CN(C5CCC(=O)NC5=O)C6=O)C4)CC3)(C1)C2 (stereo partly drawn) = 2
• O=C1CCC(N2Cc3cc(OC4CCCCC4N4CC(c5cccc6[nH]ncc56)C4)ccc3C2=O)C(=O)N1 (stereo not drawn) = 64
• O=C1CCC(N2Cc3cc(O[C@H]4CCCC[C@@H]4N4CC(c5ccncc5Cl)C4)ccc3C2=O)C(=O)N1 (mixture of isomers) [Compound 173-B] = 31
• O=C1CCC(N2Cc3cc(OC4CCCCC4N4CC(c5ncc(C6CC6)cn5)C4)ccc3C2=O)C(=O)N1 (stereo not drawn) = 4
• O=C1CCC(N2Cc3cc(O[C@H]4CCCC[C@@H]4N4CC(c5ccncc5F)C4)ccc3C2=O)C(=O)N1 (single isomer, unassigned) [Compound 103-B] = 18
• O=C1CCC(N2Cc3cc(OC4CCCCC4N4CC(c5cncnc5)C4)ccc3C2=O)C(=O)N1 (stereo not drawn) = 425
• O=C1CCC(N2Cc3cc(O[C@H]4CCCC[C@@H]4N4CC(c5ccc6ccccc6n5)C4)ccc3C2=O)C(=O)N1 (mixture of isomers) [Compound 152-B] = 41
• O=C1CCC(N2Cc3cc(OC4CCC[C@@H]4N4CC(c5cccnc5)C4)ccc3C2=O)C(=O)N1 (mixture of isomers) [Compound 207-B] = 1470
• O=C1CCC(N2Cc3cc(OC4CCCCC4N4CC(c5ccnnc5)C4)ccc3C2=O)C(=O)N1 (stereo not drawn) = 581
• O=C1CCC(N2Cc3cc(O[C@H]4CCCC[C@@H]4N4CC(n5ccnc5)C4)ccc3C2=O)C(=O)N1 (stereo partly drawn) = 2100
